Hey, just so you know, these numbers are from ChEMBL document CHEMBL3991601.

MEASUREMENT TARGET: Mitogen-activated protein kinase 1 (Homo sapiens); note: in the data inactive means no Kd found up to 30 µM
Sequence (P28482 whole entry): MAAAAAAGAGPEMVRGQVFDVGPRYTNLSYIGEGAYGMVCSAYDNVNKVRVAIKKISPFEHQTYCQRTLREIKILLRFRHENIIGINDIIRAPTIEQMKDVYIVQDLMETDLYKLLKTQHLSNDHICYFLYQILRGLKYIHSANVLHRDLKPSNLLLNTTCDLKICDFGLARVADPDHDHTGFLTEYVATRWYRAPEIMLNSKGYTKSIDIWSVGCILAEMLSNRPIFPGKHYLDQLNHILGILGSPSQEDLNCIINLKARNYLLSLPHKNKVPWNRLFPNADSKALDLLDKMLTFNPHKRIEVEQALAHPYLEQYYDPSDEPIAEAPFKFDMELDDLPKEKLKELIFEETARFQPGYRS
Active and inactive are the calls of the source.
Write down one outcome, taken from active, inactive

Consider the worked cases shown below.
COMPOUND: CCOc1cc2ncc(C#N)c(Nc3ccc(F)c(Cl)c3)c2cc1NC(=O)/C=C/CN(C)C [PELITINIB]
MEASUREMENT TARGET: Mitogen-activated protein kinase 1 (Homo sapiens); note: in the data inactive means no Kd found up to 30 µM
LABEL VALUE: inactive
--
COMPOUND: CO[C@H]1C[C@@H]2CC[C@@H](C)[C@@](O)(O2)C(=O)C(=O)N2CCCC[C@H]2C(=O)O[C@H]([C@H](C)C[C@@H]2CC[C@@H](O)[C@H](OC)C2)CC(=O)[C@H](C)/C=C(\C)[C@@H](O)[C@@H](OC)C(=O)[C@H](C)C[C@H](C)/C=C/C=C/C=C/1C [SIROLIMUS]
MEASUREMENT TARGET: Mitogen-activated protein kinase 1 (Homo sapiens); note: in the data inactive means no Kd found up to 30 µM
LABEL VALUE: inactive
--
COMPOUND: Cc1cnc(NC(=O)Nc2cc(Br)c(C)cc2OC[C@@H]2CNCCO2)cn1 [RABUSERTIB]
MEASUREMENT TARGET: Mitogen-activated protein kinase 1 (Homo sapiens); note: in the data inactive means no Kd found up to 30 µM
LABEL VALUE: inactive

Give the logged outcome of this assay for the following compound: CNC(=O)c1nn(C)c2c1C(C)(C)Cc1cnc(Nc3ccc(N4CCN(C)CC4)cc3)nc1-2 [MILCICLIB]
inactive

Give the logged outcome of this assay for the following compound: C#Cc1cccc(Nc2ncnc3cc(OC)c(OCCCCCCC(=O)NO)cc23)c1 [CUDC-101]
inactive

Give the logged outcome of this assay for the following compound: NC(=O)Nc1cc(-c2cccc(F)c2)sc1C(=O)N[C@H]1CCCNC1 [AZD-7762]
inactive

Give the logged outcome of this assay for the following compound: Cc1csc(-c2nnc(Nc3ccc(Oc4ncccc4-c4ccnc(N)n4)cc3)c3ccccc23)c1 [AMG-900]
inactive

Give the logged outcome of this assay for the following compound: COc1cc([C@@H]2c3cc4c(cc3[C@H](O)[C@H]3COC(=O)[C@@H]23)OCO4)cc(OC)c1OC [AXL-1717]
inactive

Give the logged outcome of this assay for the following compound: C[C@@H](Oc1cc(C(=O)Nc2ccc(C(=O)N3CCN(C)CC3)cc2)nnc1N)c1c(Cl)ccc(F)c1Cl
inactive

Give the logged outcome of this assay for the following compound: Cn1cc(-c2cnn3c(N)c(Br)c([C@@H]4CCCNC4)nc23)cn1 [SCH-900776]
inactive

Give the logged outcome of this assay for the following compound: Cc1cc(Nc2ncc(Cl)c(Nc3ccccc3S(=O)(=O)C(C)C)n2)c(OC(C)C)cc1C1CCNCC1 [CERITINIB]
inactive

Give the logged outcome of this assay for the following compound: Cc1nc(Nc2n[nH]c3c2CN(C(=O)N[C@H](CN(C)C)c2ccccc2)C3(C)C)c2sccc2n1 [PF-03758309]
active

----------
The source made the active and inactive calls.
The following compounds each carry a recorded Kd for UniProt Q00526.
Sequence (Q00526 whole entry): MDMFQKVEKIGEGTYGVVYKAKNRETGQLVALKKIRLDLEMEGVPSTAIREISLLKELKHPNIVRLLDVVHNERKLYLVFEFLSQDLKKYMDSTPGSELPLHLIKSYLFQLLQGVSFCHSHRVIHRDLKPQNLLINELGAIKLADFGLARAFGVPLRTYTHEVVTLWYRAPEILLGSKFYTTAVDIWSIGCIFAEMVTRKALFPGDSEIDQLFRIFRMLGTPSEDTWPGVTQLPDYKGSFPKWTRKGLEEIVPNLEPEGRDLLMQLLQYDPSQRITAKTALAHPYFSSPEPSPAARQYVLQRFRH

Known results for compounds:
COMPOUND: Cc1nc2cc(-c3nn(C(C)C)c4ncnc(N)c34)ccc2o1
MEASUREMENT TARGET: UniProt Q00526
Kd: > 30 µM (inactive)

COMPOUND: COc1c(OCCCN2CCOCC2)ccc2c1N=C(NC(=O)c1cnc(N)nc1)N1CCN=C21
MEASUREMENT TARGET: UniProt Q00526
Kd: > 30 µM (inactive)

COMPOUND: C[C@H]1CNCCCN1S(=O)(=O)c1cccc2cncc(F)c12
MEASUREMENT TARGET: UniProt Q00526
Kd: > 30 µM (inactive)

Tested system UniProt Q00526; Kd recorded for CCCCCCCCCCCCCCCCCCOP(=O)([O-])OC1CC[N+](C)(C)CC1 was > 30 µM (inactive)

Tested system UniProt Q00526; Kd recorded for CC(=O)c1cnc2ccc(-c3cc(Cl)c(O)c(Cl)c3)nc2c1N[C@H]1CC[C@H](CN(C)C)CC1 was > 30 µM (inactive)

----------
MEASUREMENT TARGET: Proto-oncogene tyrosine-protein kinase receptor Ret (Homo sapiens, UniProt P07949); note: in the data inactive means no Kd found up to 30 µM
Sequence (P07949 whole entry): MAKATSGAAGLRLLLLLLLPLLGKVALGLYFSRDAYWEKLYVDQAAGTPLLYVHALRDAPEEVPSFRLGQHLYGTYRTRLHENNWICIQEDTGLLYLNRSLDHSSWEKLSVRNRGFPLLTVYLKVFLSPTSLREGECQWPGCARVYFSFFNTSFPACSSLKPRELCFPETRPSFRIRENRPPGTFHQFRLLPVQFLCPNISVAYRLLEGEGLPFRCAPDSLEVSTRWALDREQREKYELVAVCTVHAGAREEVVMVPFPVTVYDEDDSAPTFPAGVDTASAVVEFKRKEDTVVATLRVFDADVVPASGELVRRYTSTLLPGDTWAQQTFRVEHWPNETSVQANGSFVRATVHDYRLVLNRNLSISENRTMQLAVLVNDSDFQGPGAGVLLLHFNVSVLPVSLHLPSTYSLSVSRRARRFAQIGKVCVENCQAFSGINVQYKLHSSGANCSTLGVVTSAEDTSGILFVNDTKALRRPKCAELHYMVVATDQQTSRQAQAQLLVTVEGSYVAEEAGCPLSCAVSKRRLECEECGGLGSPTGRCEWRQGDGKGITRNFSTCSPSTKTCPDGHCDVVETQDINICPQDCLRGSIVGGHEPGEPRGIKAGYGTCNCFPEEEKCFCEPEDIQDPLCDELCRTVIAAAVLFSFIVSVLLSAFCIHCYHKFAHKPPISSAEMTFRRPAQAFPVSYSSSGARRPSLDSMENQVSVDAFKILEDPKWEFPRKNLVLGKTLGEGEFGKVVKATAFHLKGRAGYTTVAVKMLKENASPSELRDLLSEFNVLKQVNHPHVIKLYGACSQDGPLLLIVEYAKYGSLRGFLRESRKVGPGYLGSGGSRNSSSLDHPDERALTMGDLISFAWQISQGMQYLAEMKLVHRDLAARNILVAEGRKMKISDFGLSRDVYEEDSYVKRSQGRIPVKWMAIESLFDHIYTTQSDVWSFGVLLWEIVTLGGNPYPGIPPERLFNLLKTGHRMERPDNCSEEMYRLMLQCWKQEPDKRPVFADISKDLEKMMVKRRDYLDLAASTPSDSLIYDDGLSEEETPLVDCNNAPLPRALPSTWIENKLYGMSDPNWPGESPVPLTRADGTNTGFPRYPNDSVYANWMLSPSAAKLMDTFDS
The source made the active and inactive calls.
METRIC: Kd

SMILES STR: CCS(=O)(=O)c1cccc(-c2cc(C(=O)NC3CCN(C)CC3)c(C)c3[nH]c4ncc(C)cc4c23)c1
Kd: 111 nM (active)

SMILES STR: Cc1csc(-c2nnc(Nc3ccc(Oc4ncccc4-c4ccnc(N)n4)cc3)c3ccccc23)c1
Kd: 1140 nM (active)

SMILES STR: Cc1nc2cc(-c3nn(C(C)C)c4ncnc(N)c34)ccc2o1
Kd: 1600 nM (active)

SMILES STR: C[C@@H](NC(=O)c1ncnc(N)c1Cl)c1ncc(C(=O)Nc2cc(C(F)(F)F)c(Cl)cn2)s1
Kd: > 30000 nM (inactive)

SMILES STR: CCOc1cc2ncc(C#N)c(Nc3ccc(F)c(Cl)c3)c2cc1NC(=O)/C=C/CN(C)C
Kd: > 30000 nM (inactive)

// moving on: another record for Kd
For reference, reported Kd for N#CC1(c2ccc(NC(=O)c3cccnc3NCc3ccncc3)cc2)CCCC1 stands at 111 nM (active)

----------
MEASUREMENT TARGET: Mitogen-activated protein kinase kinase kinase 4 (Homo sapiens); note: in the data inactive means no Kd found up to 30 µM
Sequence (Q9Y6R4 whole entry): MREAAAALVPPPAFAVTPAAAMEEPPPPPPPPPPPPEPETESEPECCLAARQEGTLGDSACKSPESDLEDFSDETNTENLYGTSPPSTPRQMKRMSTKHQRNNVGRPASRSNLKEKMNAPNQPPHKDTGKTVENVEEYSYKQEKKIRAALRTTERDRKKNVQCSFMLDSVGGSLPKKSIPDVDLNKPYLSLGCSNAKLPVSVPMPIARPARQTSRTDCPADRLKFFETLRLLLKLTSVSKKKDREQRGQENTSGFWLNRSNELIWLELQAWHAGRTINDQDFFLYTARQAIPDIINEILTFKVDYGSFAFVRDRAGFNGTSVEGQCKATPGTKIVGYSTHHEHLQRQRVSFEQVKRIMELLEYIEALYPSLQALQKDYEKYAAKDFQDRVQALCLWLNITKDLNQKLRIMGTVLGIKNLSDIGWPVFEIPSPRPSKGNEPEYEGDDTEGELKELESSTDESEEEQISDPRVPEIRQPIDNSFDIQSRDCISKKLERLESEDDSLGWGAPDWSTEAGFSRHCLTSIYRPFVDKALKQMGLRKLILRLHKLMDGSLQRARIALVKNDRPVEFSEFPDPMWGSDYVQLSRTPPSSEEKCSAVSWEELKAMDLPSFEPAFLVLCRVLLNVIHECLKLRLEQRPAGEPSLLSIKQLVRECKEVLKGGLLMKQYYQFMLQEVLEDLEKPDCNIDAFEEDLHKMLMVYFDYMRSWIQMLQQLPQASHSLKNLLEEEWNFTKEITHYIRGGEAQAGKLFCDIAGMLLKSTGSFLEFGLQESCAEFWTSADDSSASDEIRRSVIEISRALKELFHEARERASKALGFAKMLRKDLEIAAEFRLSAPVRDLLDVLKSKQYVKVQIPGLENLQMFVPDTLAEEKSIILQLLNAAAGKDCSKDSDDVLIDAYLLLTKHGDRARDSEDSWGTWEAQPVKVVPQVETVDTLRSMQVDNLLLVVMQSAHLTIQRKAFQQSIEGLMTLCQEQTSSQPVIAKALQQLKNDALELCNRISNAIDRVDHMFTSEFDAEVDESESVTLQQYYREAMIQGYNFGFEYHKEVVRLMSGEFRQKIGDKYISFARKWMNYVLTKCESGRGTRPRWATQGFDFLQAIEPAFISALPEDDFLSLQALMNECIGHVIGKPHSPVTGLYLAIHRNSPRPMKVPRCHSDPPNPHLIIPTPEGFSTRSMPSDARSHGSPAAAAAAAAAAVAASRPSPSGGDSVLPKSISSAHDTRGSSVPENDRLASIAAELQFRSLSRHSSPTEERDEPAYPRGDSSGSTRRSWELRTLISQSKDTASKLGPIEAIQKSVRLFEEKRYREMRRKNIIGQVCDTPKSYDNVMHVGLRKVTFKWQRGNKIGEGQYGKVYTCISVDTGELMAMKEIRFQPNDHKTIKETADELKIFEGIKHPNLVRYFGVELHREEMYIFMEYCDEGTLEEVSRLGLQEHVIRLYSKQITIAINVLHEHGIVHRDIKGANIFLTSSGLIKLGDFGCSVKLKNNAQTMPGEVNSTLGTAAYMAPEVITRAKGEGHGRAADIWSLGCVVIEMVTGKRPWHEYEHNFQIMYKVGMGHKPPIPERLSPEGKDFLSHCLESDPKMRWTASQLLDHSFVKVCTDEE
Active and inactive are the calls of the source.
METRIC: Kd

COMPOUND: Cc1cnc(NC(=O)Nc2cc(Br)c(C)cc2OC[C@@H]2CNCCO2)cn1 [RABUSERTIB]
MEASUREMENT TARGET: Mitogen-activated protein kinase kinase kinase 4 (Homo sapiens); note: in the data inactive means no Kd found up to 30 µM
Kd: > 30 µM (inactive)
--
COMPOUND: C[C@H]1CNCCCN1S(=O)(=O)c1cccc2cncc(F)c12
MEASUREMENT TARGET: Mitogen-activated protein kinase kinase kinase 4 (Homo sapiens); note: in the data inactive means no Kd found up to 30 µM
Kd: > 30 µM (inactive)
--
COMPOUND: Nc1ncnc2c1c(-c1cccc(OCc3ccccc3)c1)cn2[C@H]1C[C@@H](CN2CCC2)C1 [AEW-541]
MEASUREMENT TARGET: Mitogen-activated protein kinase kinase kinase 4 (Homo sapiens); note: in the data inactive means no Kd found up to 30 µM
Kd: > 30 µM (inactive)
--
COMPOUND: FC(F)(F)c1ccc(/C=C/c2nc(COc3ccc(CCCCn4ccnn4)cc3)co2)cc1 [MUBRITINIB]
MEASUREMENT TARGET: Mitogen-activated protein kinase kinase kinase 4 (Homo sapiens); note: in the data inactive means no Kd found up to 30 µM
Kd: > 30 µM (inactive)

Tested system Mitogen-activated protein kinase kinase kinase 4 (Homo sapiens); Kd recorded for CN(C[C@@H]1COCCO1)S(=O)(=O)Nc1ccc2ccc3ncc(-c4cnn(C)c4)cc3c(=O)c2c1 [MK-2461] was > 30 µM (inactive)

Tested system Mitogen-activated protein kinase kinase kinase 4 (Homo sapiens); Kd recorded for O=C(Cc1ccc(-c2ccc(OCCN3CCOCC3)cc2)cn1)NCc1ccccc1 [TIRBANIBULIN] was > 30 µM (inactive)

Tested system Mitogen-activated protein kinase kinase kinase 4 (Homo sapiens); Kd recorded for CNC(=O)c1cc(Oc2ccc(NC(=O)Nc3cc(C(C)(C)C)nn3-c3ccc4ncccc4c3)c(F)c2)ccn1 [REBASTINIB] was > 30 µM (inactive)

Tested system Mitogen-activated protein kinase kinase kinase 4 (Homo sapiens); Kd recorded for C=CC(=O)N1CCC[C@H](n2c(=O)n(-c3ccc(Oc4ccccc4)cc3)c3c(N)ncnc32)C1 was > 30 µM (inactive)

Tested system Mitogen-activated protein kinase kinase kinase 4 (Homo sapiens); Kd recorded for C#Cc1cccc(Nc2ncnc3cc(OC)c(OCCCCCCC(=O)NO)cc23)c1 [CUDC-101] was > 30 µM (inactive)

----------
MEASUREMENT TARGET: UniProt O15197
Sequence (O15197 whole entry): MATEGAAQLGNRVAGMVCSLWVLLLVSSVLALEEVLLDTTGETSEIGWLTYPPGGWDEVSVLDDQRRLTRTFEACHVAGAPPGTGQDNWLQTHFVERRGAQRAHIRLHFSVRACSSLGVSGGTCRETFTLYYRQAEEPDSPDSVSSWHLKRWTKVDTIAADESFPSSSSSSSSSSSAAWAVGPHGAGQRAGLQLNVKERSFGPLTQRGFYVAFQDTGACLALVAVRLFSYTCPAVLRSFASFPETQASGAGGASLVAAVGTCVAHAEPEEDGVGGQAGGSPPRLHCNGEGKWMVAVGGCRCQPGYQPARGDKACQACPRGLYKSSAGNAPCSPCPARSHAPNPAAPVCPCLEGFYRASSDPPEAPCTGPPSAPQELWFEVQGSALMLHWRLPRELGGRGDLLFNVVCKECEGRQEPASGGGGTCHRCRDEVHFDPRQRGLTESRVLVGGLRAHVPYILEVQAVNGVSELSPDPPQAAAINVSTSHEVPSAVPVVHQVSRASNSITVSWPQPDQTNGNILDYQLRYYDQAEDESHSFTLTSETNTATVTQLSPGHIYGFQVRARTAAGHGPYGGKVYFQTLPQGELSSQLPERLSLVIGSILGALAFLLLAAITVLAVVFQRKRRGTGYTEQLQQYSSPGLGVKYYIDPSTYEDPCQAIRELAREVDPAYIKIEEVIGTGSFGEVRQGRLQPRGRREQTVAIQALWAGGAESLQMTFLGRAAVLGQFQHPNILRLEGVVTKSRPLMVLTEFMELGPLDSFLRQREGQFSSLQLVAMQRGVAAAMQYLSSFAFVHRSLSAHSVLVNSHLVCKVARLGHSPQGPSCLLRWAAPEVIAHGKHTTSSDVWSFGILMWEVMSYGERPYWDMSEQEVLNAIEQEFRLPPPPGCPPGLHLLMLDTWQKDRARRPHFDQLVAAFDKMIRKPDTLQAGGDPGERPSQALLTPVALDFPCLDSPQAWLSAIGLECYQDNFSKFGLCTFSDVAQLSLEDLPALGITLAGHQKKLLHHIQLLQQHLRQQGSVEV
Structures can show the parent of a compound that is named as a salt. Active and inactive are the calls of the source.
Write down one outcome, taken from T for active, F for inactive

MOLECULE: CCS(=O)(=O)N1CCN(c2ccc(Nc3ncc(C(N)=O)c(NC4CC4)n3)cc2)CC1 [Cerdulatinib Hydrochloride]
MEASUREMENT TARGET: UniProt O15197
LABEL VALUE: F

Give the logged outcome of this assay for the following molecule: COc1cc(Nc2ncc3c(n2)-c2ccc(Cl)cc2C(c2c(F)cccc2OC)=NC3)ccc1C(=O)O
F

Give the logged outcome of this assay for the following molecule: CN1CCN(CCOc2cc(OC3CCOCC3)c3c(Nc4c(Cl)ccc5c4OCO5)ncnc3c2)CC1
T
